Target: recombinant human PAI-1 (Homo sapiens, UniProt P05121)
Construct: purchased Molecular Innovations, Inc
Sequence (P05121 24-402): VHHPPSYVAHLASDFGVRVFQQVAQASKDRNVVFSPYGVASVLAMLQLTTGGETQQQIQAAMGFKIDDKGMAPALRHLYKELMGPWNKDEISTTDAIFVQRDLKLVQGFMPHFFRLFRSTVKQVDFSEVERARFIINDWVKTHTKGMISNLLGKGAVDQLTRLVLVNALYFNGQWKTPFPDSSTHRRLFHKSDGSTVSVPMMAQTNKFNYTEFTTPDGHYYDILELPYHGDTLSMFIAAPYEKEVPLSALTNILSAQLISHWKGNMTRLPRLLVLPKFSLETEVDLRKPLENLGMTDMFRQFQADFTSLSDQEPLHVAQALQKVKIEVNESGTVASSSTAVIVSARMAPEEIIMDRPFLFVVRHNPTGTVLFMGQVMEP
Test: Test Example 2: human PAI-1 inhibitory activity (tPA fluorogenic substrate, pH 7.4 HEPES buffer)
Assay type: biochemical
Conditions: human PAI-1; compound concentration 1 μM
Experimental: 0.1 M HEPES, 0.1 M NaCl. 1 mM EDTA. 0.1% Polyethylene glycol 8,000 (Hampton Research Corporation), 2 mM Dimethyldecylphoshine oxide [Apo-10] (Fluka Corporation)
Listed compounds paired with reported Inhibition Rate of PAI-1 Activity (%)
Respond with the bare value in %.

// below: answered compounds
{"COMPOUND": "O=C(O)/C=C/c1ccc(-c2ccc(OC(F)(F)F)cc2)cc1OCCCSc1ccccc1", "NUMERIC RESULT": 69}
{"COMPOUND": "CCCCOc1cccc(Oc2cc(-c3ccc(OC(F)(F)F)cc3)ccc2CCC(=O)O)c1", "NUMERIC RESULT": 71}

Look up Inhibition Rate of PAI-1 Activity (%) of CCCCC(CC(=O)O)c1cc(-c2ccc(OC(F)(F)F)cc2)ccc1Oc1ccc(C(C)(C)C)cc1 (stereo not shown) and report it.
72

Hello, please tell me recorded Inhibition Rate of PAI-1 Activity (%) for this one: CC(C)(C)c1ccc(Oc2ccc(Oc3ccc(OC(F)(F)F)cc3)cc2OCC(=O)O)cc1
92

====

Target: recombinant human PAI-1 (Homo sapiens, UniProt P05121)
Construct: purchased Molecular Innovations, Inc
Assay: Test Example 2: human PAI-1 inhibitory activity (tPA fluorogenic substrate, pH 7.4 HEPES buffer)
Format: biochemical
Conditions: human PAI-1; compound concentration 1 μM
READOUT TYPE: Inhibition Rate of PAI-1 Activity (%)
Give the value, in units of %, as a plain number.

Record excerpt, results attached:
{"COMPOUND": "O=C(O)/C=C/c1cc(-c2ccc(OC(F)(F)F)cc2)ccc1OCCCCCOc1ccc(-c2ccc(OC(F)(F)F)cc2)cc1/C=C/C(=O)O", "VALUE UNITS": "%", "NUMERIC RESULT": 73}
{"COMPOUND": "Cc1cc(C)cc(Oc2cc(-c3ccc(C(C)(C)C)cc3)ccc2/C=C/C(=O)O)c1", "VALUE UNITS": "%", "NUMERIC RESULT": 87}

Using the record for CC(Oc1cc(-c2ccc(OC(F)(F)F)cc2)ccc1/C=C/C(=O)O)c1ccccc1 (centres unmarked) , state its measured Inhibition Rate of PAI-1 Activity (%).
25

====

Target: recombinant human PAI-1 (Homo sapiens)
Construct: purchased Molecular Innovations, Inc
Experiment: Test Example 2: human PAI-1 inhibitory activity (tPA fluorogenic substrate, pH 7.4 HEPES buffer)
Format: biochemical
Settings: human PAI-1; compound concentration 1 μM
# reported Inhibition Rate of PAI-1 Activity (%); entries follow
Record the value in %, omitting the unit from your answer.

In the examples that follow, each entry is paired with its recorded Inhibition Rate of PAI-1 Activity (%).
{"COMPOUND": "CC(C)(C)c1ccc(Oc2cc(-c3ccc(OC(F)(F)F)cc3)ccc2C(=O)O)cc1", "VALUE UNITS": "%", "Inhibition Rate of PAI-1 Activity (%)": 66}
{"COMPOUND": "CC(C)(C)OCCOc1ccc(-c2ccc(OC(F)(F)F)cc2)cc1N(CCCCc1ccccc1)CC(=O)O", "VALUE UNITS": "%", "Inhibition Rate of PAI-1 Activity (%)": 30}
{"COMPOUND": "CC(C)(C)c1ccc(Oc2ccc(-c3ccc(OC(F)(F)F)cc3)cc2N(CCCCc2ccccc2)C(=O)C(=O)O)cc1", "VALUE UNITS": "%", "Inhibition Rate of PAI-1 Activity (%)": 72}

Provide Inhibition Rate of PAI-1 Activity (%), recorded with recombinant human PAI-1 (Homo sapiens), of O=C(O)CCc1ccc(-c2ccc(OC(F)(F)F)cc2)cc1OC(c1ccccc1)c1ccccc1
49
